- Tested on: HOP-62 multicell spheroids with HUVEC/MSC, viability
- ASSAY_REMARKS: Anticancer human tumor HOP-62 cell line growth inhibition [KRAS2];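 note: viability read after a week of compound exposure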;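 for viability, T/C: 100% = DMSO vehicle-treated spheroids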
- CONDITION_SUMMARY: second compound 3.16 µM; first compound 0.0316 µM; stronger effect = lower value
- Text: Multicellular complex tumor spheroid response to RAS pathway inhibitors in combination with a targeted agents in patient-derived cell lines with oncogenic KRAS variants from multiple cancer types A high-throughput screen of multi-cell type tumor spheroids was designed to identify active combinations of targeted small molecules and KRAS pathway inhibitors. […] Compounds. […] If the clinical Cmax for an agent had not been determined, the highest concentration tested was 10 microM. […]
Category key, based on recorded viability, T/C: bucket A (below 20%), bucket B (20% to below 50%), bucket C (50% or more)

For orientation, consider the following solved cases.
COMPOUND | TARGET | LABEL_VALUE
CCNC(=O)CC1N=C(c2ccc(Cl)cc2)c2cc(OC)ccc2-n2c(C)nnc21 (stereo unspecified) + C=CC(=O)N1CCN(c2nc(OCC3CCCN3C)nc3c2CCN(c2cccc4cccc(C)c24)C3)CC1CC#N | HOP-62 multicell spheroids with HUVEC/MSC, viability | bucket A
COc1cc(Nc2ncc3c(n2)-c2ccc(Cl)cc2C(c2c(F)cccc2OC)=NC3)ccc1C(=O)O + COc1cc2nc(C)nc(NC(C)c3cc(N)cc(C(F)(F)F)c3)c2cc1OC1CCOC1 | HOP-62 multicell spheroids with HUVEC/MSC, viability | bucket B
Cn1ncnc1[C@H]1c2n[nH]c(=O)c3cc(F)cc(c23)N[C@@H]1c1ccc(F)cc1 + CC1OCC2(CCN(c3cnc(Sc4ccnc(N)c4Cl)c(N)n3)CC2)C1N | HOP-62 multicell spheroids with HUVEC/MSC, viability | bucket A
CCNC(=O)CC1N=C(c2ccc(Cl)cc2)c2cc(OC)ccc2-n2c(C)nnc21 (stereo unspecified) + CC1OCC2(CCN(c3cnc(Sc4ccnc(N)c4Cl)c(N)n3)CC2)C1N | HOP-62 multicell spheroids with HUVEC/MSC, viability | bucket C
COC(=O)c1ccc2c(C(=Nc3ccc(N(C)C(=O)CN4CCN(C)CC4)cc3)c3ccccc3)c(O)[nH]c2c1 + COc1cc2nc(C)nc(NC(C)c3cc(N)cc(C(F)(F)F)c3)c2cc1OC1CCOC1 | HOP-62 multicell spheroids with HUVEC/MSC, viability | bucket B
O=C(c1cc(Cc2n[nH]c(=O)c3ccccc23)ccc1F)N1CCN(C(=O)C2CC2)CC1 + COc1cc2nc(C)nc(NC(C)c3cc(N)cc(C(F)(F)F)c3)c2cc1OC1CCOC1 | HOP-62 multicell spheroids with HUVEC/MSC, viability | bucket C

[Q] Where would CC1OCC2(CCN(c3cnc(Sc4ccnc(N)c4Cl)c(N)n3)CC2)C1N (stereo unspecified) + CNCc1ccccc1-c1csc(C(C)Nc2nc(C)nc3cc(OC)c(OC)cc23)c1 land among the classes by reported viability, T/C?
[A] bucket B

[Q] Now this one: CC(=O)OC12COC1CC(O)C1(C)C(=O)C(O)C3=C(C)C(OC(=O)C(O)C(NC(=O)OC(C)(C)C)c4ccccc4)CC(O)(C(OC(=O)c4ccccc4)C21)C3(C)C (stereo unspecified) + CC1OCC2(CCN(c3cnc(Sc4ccnc(N)c4Cl)c(N)n3)CC2)C1N
[A] bucket B

[Q] Do the same for CCNC(=O)CC1N=C(c2ccc(Cl)cc2)c2cc(OC)ccc2-n2c(C)nnc21 (stereo unspecified) + CNCc1ccccc1-c1csc(C(C)Nc2nc(C)nc3cc(OC)c(OC)cc23)c1 please
[A] bucket A

[Q] Quick one: CCN1CCN(Cc2ccc(Nc3ncc(F)c(-c4cc(F)c5nc(C)n(C(C)C)c5c4)n3)nc2)CC1 + CC1OCC2(CCN(c3cnc(Sc4ccnc(N)c4Cl)c(N)n3)CC2)C1N
[A] bucket B

[Q] CC1(C)CCC(CN2CCN(c3ccc(C(=O)NS(=O)(=O)c4ccc(NCC5CCOCC5)c([N+](=O)[O-])c4)c(Oc4cnc5[nH]ccc5c4)c3)CC2)=C(c2ccc(Cl)cc2)C1 + CC1OCC2(CCN(c3cnc(Sc4ccnc(N)c4Cl)c(N)n3)CC2)C1N ?
[A] bucket B

###

- Test system: HOP-62 multicell spheroids with HUVEC/MSC, viability
- ASSAY_REMARKS: Anticancer human tumor HOP-62 cell line growth inhibition [KRAS2]; active = viability on the fitted dose curve at most 10% of control; inactive = the rest;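 note: viability read after a week of compound exposure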
- CONDITION_SUMMARY: second compound 10 µM; first compound 0.01 µM
API: response.call in active, inactive

[Q] I'd appreciate the recorded outcome for CCN1CCN(Cc2ccc(Nc3ncc(F)c(-c4cc(F)c5nc(C)n(C(C)C)c5c4)n3)nc2)CC1 + C=CC(=O)N1CCN(c2nc(=O)n(-c3c(C)ccnc3C(C)C)c3nc(-c4c(O)cccc4F)c(F)cc23)C(C)C1 from this test.
[A] inactive

[Q] Query CC1COCCN1c1cc(-c2ccnn2C)c2ccnc(-c3ccn[nH]3)c2n1 (stereo unspecified) + CC1OCC2(CCN(c3cnc(Sc4ccnc(N)c4Cl)c(N)n3)CC2)C1N next
[A] inactive

[Q] // next record CC1COCCN1c1cc(-c2ccnn2C)c2ccnc(-c3ccn[nH]3)c2n1 (stereo unspecified) + CNCc1ccccc1-c1csc(C(C)Nc2nc(C)nc3cc(OC)c(OC)cc23)c1
[A] active

###

- System: HOP-62 multicell spheroids with HUVEC/MSC, viability
- ASSAY_REMARKS: Anticancer human tumor HOP-62 cell line growth inhibition [KRAS2];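 note: viability read after a week of compound exposure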
- CONDITION_SUMMARY: curve of first compound; second compound 1 µM
Flag rule - IC50 less than 1000 nM flags Condition met; the remaining entries get Condition not met.

Examples with answers:
COMPOUND | LABEL_VALUE
O=C(c1cc(Cc2n[nH]c(=O)c3ccccc23)ccc1F)N1CCN(C(=O)C2CC2)CC1 + CNCc1ccccc1-c1csc(C(C)Nc2nc(C)nc3cc(OC)c(OC)cc23)c1 | Condition not met
CC1COCCN1c1cc(-c2ccnn2C)c2ccnc(-c3ccn[nH]3)c2n1 (stereo not given) + C=CC(=O)N1CCN(c2nc(=O)n(-c3c(C)ccnc3C(C)C)c3nc(-c4c(O)cccc4F)c(F)cc23)C(C)C1 | Condition met
CC1(C)CCC(CN2CCN(c3ccc(C(=O)NS(=O)(=O)c4ccc(NCC5CCOCC5)c([N+](=O)[O-])c4)c(Oc4cnc5[nH]ccc5c4)c3)CC2)=C(c2ccc(Cl)cc2)C1 + CC1OCC2(CCN(c3cnc(Sc4ccnc(N)c4Cl)c(N)n3)CC2)C1N | Condition not met
CC(C)NCC(C(=O)N1CCN(c2ncnc3c2C(C)CC3O)CC1)c1ccc(Cl)cc1 (stereo not given) + COc1cc2nc(C)nc(NC(C)c3cc(N)cc(C(F)(F)F)c3)c2cc1OC1CCOC1 | Condition met

Shift focus to the following entry.
[Q] Quick check: IC50 of Cn1nccc1Nc1nccc(-c2cc3c(s2)C(C)(C)N(CCN2CCOCC2)C3=O)n1 + C=CC(=O)N1CCN(c2nc(=O)n(-c3c(C)ccnc3C(C)C)c3nc(-c4c(O)cccc4F)c(F)cc23)C(C)C1 under 1000 nM?
[A] Condition met

###

- Test system: HOP-62 multicell spheroids with HUVEC/MSC, viability
- ASSAY_REMARKS: Anticancer human tumor HOP-62 cell line growth inhibition [KRAS2]; active means viability on the fitted dose curve at most 10% of control; inactive means the rest;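 note: viability read after a week of compound exposure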
- CONDITION_SUMMARY: second compound 10 µM; first compound 0.01 µM
# valid calls are active, inactive; nothing else

[Q] Please let me know the test result on file for CC(=O)Nc1cccc(-n2c(=O)n(C3CC3)c(=O)c3c(Nc4ccc(I)cc4F)n(C)c(=O)c(C)c32)c1 + CNCc1ccccc1-c1csc(C(C)Nc2nc(C)nc3cc(OC)c(OC)cc23)c1 .
[A] active

[Q] And then Cn1ncnc1[C@H]1c2n[nH]c(=O)c3cc(F)cc(c23)N[C@@H]1c1ccc(F)cc1 + C=CC(=O)N1CCN(c2nc(=O)n(-c3c(C)ccnc3C(C)C)c3nc(-c4c(O)cccc4F)c(F)cc23)C(C)C1 , what is it?
[A] inactive

[Q] Here is the next compound: CC(=O)Nc1cccc(-n2c(=O)n(C3CC3)c(=O)c3c(Nc4ccc(I)cc4F)n(C)c(=O)c(C)c32)c1 + CC1OCC2(CCN(c3cnc(Sc4ccnc(N)c4Cl)c(N)n3)CC2)C1N
[A] inactive

[Q] Now the compound Cn1ncnc1[C@H]1c2n[nH]c(=O)c3cc(F)cc(c23)N[C@@H]1c1ccc(F)cc1 + COc1cc2nc(C)nc(NC(C)c3cc(N)cc(C(F)(F)F)c3)c2cc1OC1CCOC1
[A] inactive

###

- System: HOP-62 multicell spheroids with HUVEC/MSC, viability
- ASSAY_REMARKS: Anticancer human tumor HOP-62 cell line growth inhibition [KRAS2];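 note: viability read after a week of compound exposure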;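 for viability, T/C: 100% = DMSO vehicle-treated spheroids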
- CONDITION_SUMMARY: second compound 0.1 µM; first compound 0.316 µM; stronger effect = lower value
REPORTED_PROPERTY: viability, T/C (%)
Record the value in %, omitting the unit from your answer.

MOLECULE | UNIT_INFO | viability, T/C
CC1(C)CCC(CN2CCN(c3ccc(C(=O)NS(=O)(=O)c4ccc(NCC5CCOCC5)c([N+](=O)[O-])c4)c(Oc4cnc5[nH]ccc5c4)c3)CC2)=C(c2ccc(Cl)cc2)C1 + COc1cc2nc(C)nc(NC(C)c3cc(N)cc(C(F)(F)F)c3)c2cc1OC1CCOC1 | % | 79.6

[Q] Tell me the measured viability, T/C of Cn1nccc1Nc1nccc(-c2cc3c(s2)C(C)(C)N(CCN2CCOCC2)C3=O)n1 + COc1cc2nc(C)nc(NC(C)c3cc(N)cc(C(F)(F)F)c3)c2cc1OC1CCOC1 , please.
[A] 76.2

[Q] Likewise for O=C(c1cc(Cc2n[nH]c(=O)c3ccccc23)ccc1F)N1CCN(C(=O)C2CC2)CC1 + C=CC(=O)N1CCN(c2nc(=O)n(-c3c(C)ccnc3C(C)C)c3nc(-c4c(O)cccc4F)c(F)cc23)C(C)C1 ?
[A] 37.5

[Q] Continue with CC1COCCN1c1cc(-c2ccnn2C)c2ccnc(-c3ccn[nH]3)c2n1 (centres undefined) + C=CC(=O)N1CCN(c2nc(OCC3CCCN3C)nc3c2CCN(c2cccc4cccc(C)c24)C3)CC1CC#N
[A] 12

FYI, the data here is from PubChem BioAssay AID1963858.
